Molecular target: recombinant human SK (Homo sapiens)
Construct: GST (glutathione-S-transferase) (N); made in house; host or cells: bacteria (pGEX bacterial expression vector)
Assay: Recombinant human SK activity assay ([3H]sphingosine to [3H]S1P)
Type: biochemical
Conditions: Human SK incubated with 6 μg/mL of compound; percentage of SK activity inhibited
# binarize inhibition at 6 µg/mL: threshold 10% inclusive, high side fulfilled, low side not fulfilled

# Compound, Classification
data = [
    ("CN1CCCC1CCNC(=O)C12CC3CC(CC(C3)C1)C2 (centres unmarked) [A56]", "fulfilled"),
    ("O=C(NCCCn1ccnc1)C12CC3CC(C1)CC(c1ccc(Cl)cc1)(C3)C2 [A65]", "not fulfilled"),
    ("O=C(NCc1ccccc1)C12CC3CC(C1)CC(c1ccc(Cl)cc1)(C3)C2 [A12]", "fulfilled"),
    ("O=C(/C=C/c1ccc(O)cc1)C12CC3CC(C1)CC(c1ccc(Cl)cc1)(C3)C2 [A132]", "not fulfilled"),
    ("CSc1ccc(CNC(=O)C23CC4CC(C2)CC(c2ccc(Cl)cc2)(C4)C3)cc1 [A14]", "fulfilled"),
    ("O=C(NCc1ccc(F)c(Cl)c1)C12CC3CC(C1)CC(c1ccc(Cl)cc1)(C3)C2 [A23]", "not fulfilled"),
    ("O=C(NCCc1ccc2c(c1)OCO2)C12CC3CC(C1)CC(c1ccc(Cl)cc1)(C3)C2 [A45]", "fulfilled"),
    ("CC(C)(C)NCCCNC(=O)C12CC3CC(C1)CC(c1ccc(Cl)cc1)(C3)C2 [A53]", "fulfilled"),
    ("O=C(NCc1ccncc1)C12CC3CC(C1)CC(c1ccc(Cl)cc1)(C3)C2 [A62]", "fulfilled"),
    ("O=C(NCc1ccc(Cl)c(C(F)(F)F)c1)C12CC3CC(C1)CC(c1ccc(Cl)cc1)(C3)C2 [A26]", "fulfilled"),
    ("O=C(NCc1cc(F)c(F)c(F)c1)C12CC3CC(C1)CC(c1ccc(Cl)cc1)(C3)C2 [A22]", "fulfilled"),
]

====

System: endogenous SK activity in MDA-MB-231 cells
Assay: Cellular S1P production (endogenous SK activity) in MDA-MB-231 cells
Assay type: cell-based
Conditions: Homo sapiens; MDA-MB-231 cells, varying concentrations; concentration inhibiting S1P production by 50%
IC50 overview

# Molecule, Unit abbreviation, IC50
measured = [
    ("Clc1ccc(C23CC4CC(CC(CNCCN5CCOCC5)(C4)C2)C3)cc1", "µM", 64),
    ("O=C(NCCN1CCOCC1)c1nc(-c2ccc(Cl)cc2)cs1", "µM", 5),
    ("O=C(NCCc1ccc(O)c(O)c1)C12CC3CC(C1)CC(c1ccc(Cl)cc1)(C3)C2", "µM", 35),
    ("CCCC(=O)Oc1ccc(C=CC(=O)Nc2nc(-c3ccc(Cl)cc3)cs2)cc1OC", "µM", 34),
    ("CCn1c2ccccc2c2cc(NC(C)C34CC5CC(CC(c6ccc(Cl)cc6)(C5)C3)C4)ccc21 (stereo not drawn)", "µM", 51),
    ("CN1CCC(NC(=O)C23CC4CC(C2)CC(c2ccc(Cl)cc2)(C4)C3)CC1", "µM", 25),
    ("O=C(C=Cc1ccc([N+](=O)[O-])cc1)Nc1nc2cc(Cl)ccc2o1", "µM", 5.8),
    ("CN1CCCC1CCNC(=O)C12CC3CC(C1)CC(c1ccc(Cl)cc1)(C3)C2 (stereo not drawn)", "µM", 60),
    ("O=C(Nc1ccc(O)cc1)C12CC3CC(C1)CC(c1ccc(Cl)cc1)(C3)C2", "µM", 15),
]

====

inhibition at 6 µg/mL overview
Biological target: recombinant human SK (Homo sapiens, UniProt Q9NYA1)
Construct: GST (glutathione-S-transferase) (N); made in house; host or cells: bacteria (pGEX bacterial expression vector)
Sequence (Q9NYA1 whole entry): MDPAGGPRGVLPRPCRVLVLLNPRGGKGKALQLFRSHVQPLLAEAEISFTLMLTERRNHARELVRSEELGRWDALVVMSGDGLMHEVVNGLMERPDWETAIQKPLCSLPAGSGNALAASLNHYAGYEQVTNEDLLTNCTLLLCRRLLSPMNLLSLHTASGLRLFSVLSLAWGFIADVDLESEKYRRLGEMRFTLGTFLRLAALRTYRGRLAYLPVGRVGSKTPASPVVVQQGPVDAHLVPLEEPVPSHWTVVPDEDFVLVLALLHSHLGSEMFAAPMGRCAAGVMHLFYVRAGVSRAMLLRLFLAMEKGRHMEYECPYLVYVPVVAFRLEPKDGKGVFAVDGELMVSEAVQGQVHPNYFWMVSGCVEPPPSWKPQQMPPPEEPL
Assay: Recombinant human SK activity assay ([3H]sphingosine to [3H]S1P)
Format: biochemical
Conditions: Human SK incubated with 6 μg/mL of compound; percentage of SK activity inhibited
Observed property: inhibition at 6 µg/mL (%)

# Compound, Endpoint value
rows = [
    ("Fc1cc(C(F)(F)F)ccc1CNCC12CC3CC(C1)CC(c1ccc(Cl)cc1)(C3)C2 [A78]", 43),
    ("O=C(NCc1cc(F)cc(C(F)(F)F)c1)C12CC3CC(C1)CC(c1ccc(Cl)cc1)(C3)C2 [A18]", 0),
    ("O=C(Nc1nc2cc(Cl)ccc2o1)C12CC3CC(C1)CC(c1ccc(Cl)cc1)(C3)C2 [A72]", 14),
    ("CCn1c2ccccc2c2cc(NC(=O)C34CC5CC(C3)CC(c3ccc(Cl)cc3)(C5)C4)ccc21 [A68]", 17),
    ("FC(F)(F)c1ccc(CNCC23CC4CC(C2)CC(c2ccc(Cl)cc2)(C4)C3)cc1 [A77]", 27),
    ("O=C(Nc1nc(-c2ccc(Cl)cc2)cs1)C12CC3CC(C1)CC(c1ccc(Cl)cc1)(C3)C2 [A70]", 33),
    ("O=C(NCCc1cccc(Oc2ccccc2)c1)C12CC3CC(C1)CC(c1ccc(Cl)cc1)(C3)C2 [A46]", 4),
    ("O=C(NCCCc1ccccc1)C12CC3CC(C1)CC(c1ccc(Cl)cc1)(C3)C2 [A48]", 36),
    ("CN1CCC(NC(=O)C23CC4CC(CC(C4)C2)C3)CC1 [A50]", 0),
]

====

Target: recombinant human SK (Homo sapiens)
Construct: GST (glutathione-S-transferase) (N); made in house; host or cells: bacteria (pGEX bacterial expression vector)
Test: Recombinant human SK activity assay ([3H]sphingosine to [3H]S1P)
Type: biochemical
Details: Human SK incubated with 6 μg/mL of compound; percentage of SK activity inhibited
# binarize inhibition at 6 µg/mL: threshold 50% inclusive, high side yes (1), low side no (0)

# Compound, Classification
rows = [
    ("CCSCCNC(=O)C12CC3CC(C1)CC(c1ccc(Cl)cc1)(C3)C2", "no (0)"),
    ("O=C(NCCN1CCNCC1)C12CC3CC(C1)CC(c1ccc(Cl)cc1)(C3)C2", "no (0)"),
    ("CN1CCC(NC(=O)C23CC4CC(C2)CC(c2ccc(Cl)cc2)(C4)C3)CC1", "yes (1)"),
    ("O=C(NCc1ccncc1)C12CC3CC(CC(C3)C1)C2", "no (0)"),
    ("O=C(Nc1ccc(O)cc1)C12CC3CC(C1)CC(c1ccc(Cl)cc1)(C3)C2", "yes (1)"),
    ("O=C(/C=C/c1ccc(Cl)nc1)C12CC3CC(C1)CC(c1ccc(Cl)cc1)(C3)C2", "yes (1)"),
    ("CC(NC(=O)C12CC3CC(C1)CC(c1ccc(Cl)cc1)(C3)C2)c1ccc(Br)cc1 (stereo not shown)", "yes (1)"),
    ("CC(C)(C)c1ccc(CNC(=O)C23CC4CC(C2)CC(c2ccc(Cl)cc2)(C4)C3)cc1", "yes (1)"),
    ("O=C(NCCc1ccc(F)cc1)C12CC3CC(C1)CC(c1ccc(Cl)cc1)(C3)C2", "no (0)"),
    ("O=C(NCc1cccc(OC(F)(F)F)c1)C12CC3CC(C1)CC(c1ccc(Cl)cc1)(C3)C2", "no (0)"),
    ("O=C(NCc1cc(C(F)(F)F)cc(C(F)(F)F)c1)C12CC3CC(C1)CC(c1ccc(Cl)cc1)(C3)C2", "yes (1)"),
    ("O=C(NCc1ccc(F)c(F)c1)C12CC3CC(C1)CC(c1ccc(Cl)cc1)(C3)C2", "yes (1)"),
    ("O=C(/C=C/c1cnc[nH]1)C12CC3CC(C1)CC(c1ccc(Cl)cc1)(C3)C2", "yes (1)"),
    ("O=C(NCCN1CCOCC1)C12CC3CC(C1)CC(c1ccc(Cl)cc1)(C3)C2", "yes (1)"),
    ("CN1CCN(NC(=O)C23CC4CC(C2)CC(c2ccc(Cl)cc2)(C4)C3)CC1", "yes (1)"),
    ("CC(Nc1ccccc1)C12CC3CC(CC(c4ccccc4)(C3)C1)C2 (stereo not shown)", "yes (1)"),
    ("CS(=O)(=O)c1ccc(CNC(=O)C23CC4CC(C2)CC(c2ccc(Cl)cc2)(C4)C3)cc1", "no (0)"),
    ("CC(C)NC(=O)C12CC3CC(C1)CC(c1ccc(Cl)cc1)(C3)C2", "no (0)"),
    ("O=C(Nc1ccc(O)cc1)C12CC3CC(CC(C3)C1)C2", "yes (1)"),
]

The measured values listed here are drawn from patent US20120122870A1.
